- TEST DETAILS: Volatility of perfuming compounds (Tables 4 to 10), with top/middle/bottom note type
- Assay type: physicochemical
- STATED CONDITIONS: note type (Top/Middle/Bottom) by volatility; perfuming compounds having a green note
Where a name gives a salt, the structure may show the parent alone.
QUANTITY NAME: Type

CC/C=C\CCOC(=O)CCC [(3Z)-3-hexen-1-yl butyrate]: Top
CCCCSCCCC [DIBUTYL SULFIDE]: Top
CC(C)=CCCC(C)CCOC=O (racemic) [(+−)-3,7-DIMETHYL-6-OCTENYL FORMATE]: Top
CC/C=C(\C)C(O)CCCCC (racemic) [(+−)-(E)-4-METHYL-3-DECEN-5-OL]: Middle
CC/C=C\CC/C=C/CO: Middle
CCC(C)(O)CCCC(C)C (racemic): Top
CCCCCC(=O)OC [METHYL HEXANOATE]: Top
CC(=O)OCC=C(C)C [3-methyl-2-buten-1-yl acetate]: Top
COC(=O)C1C(C)=CCCC1(C)C (racemic): Top
CCOC(=O)CC1(C)OCCO1 [ETHYL 2-METHYL-1,3-DIOXOLANE-2-ACETATE]: Top
CC/C=C\CCOC(=O)OC [(3Z)-hex-3-en-1-yl methyl carbonate]: Top
CC(=O)C(C)O (racemic) [(+−)-3-HYDROXY-2-BUTANONE]: Top
COCCc1ccccc1: Top
